- system: human 5-HT2B receptors (Homo sapiens, UniProt P41595)
- Sequence (P41595 whole entry): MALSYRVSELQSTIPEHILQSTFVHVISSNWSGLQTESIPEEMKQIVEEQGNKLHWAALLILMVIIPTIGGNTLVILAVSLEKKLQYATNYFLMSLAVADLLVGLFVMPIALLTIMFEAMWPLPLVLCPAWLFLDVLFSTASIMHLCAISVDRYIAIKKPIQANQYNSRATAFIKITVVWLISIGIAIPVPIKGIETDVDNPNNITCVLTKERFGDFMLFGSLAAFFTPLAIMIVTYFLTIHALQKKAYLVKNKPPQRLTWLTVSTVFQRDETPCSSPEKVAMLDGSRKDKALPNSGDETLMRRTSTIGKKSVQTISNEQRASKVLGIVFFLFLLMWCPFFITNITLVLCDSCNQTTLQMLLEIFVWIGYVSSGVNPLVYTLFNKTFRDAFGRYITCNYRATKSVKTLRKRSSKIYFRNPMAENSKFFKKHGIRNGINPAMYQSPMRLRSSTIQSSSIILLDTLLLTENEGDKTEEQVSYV
- experiment: 5-HT2B agonist assay, intracellular calcium (Fluo-3, FLIPR) in HEK-293 cells
- Format: cell-based
- condition_description: HEK-293 cells expressing human 5-HT2B, read-out: EC50, 5-HT2B agonist effect
property_name: EC50

- molecule: "Cc1cc(C(C)(C)C)c(O)c(C)c1CC1=NCCN1 [CLX-162C-C01]"
  experimental_value: "14.2 nM"

###

- Tested on: 5-LO
- experiment: Lipoxygenase inhibitor screening assay, cell-free, 5-LO with linoleic acid as substrate
- Format: biochemical
- condition_description: linoleic acid substrate, 5 min, read-out: 50% inhibition of 5-LO
pIC50: −log10 of the molar value.

- molecule: "Cc1cc(C(C)(C)C)c(O)c(C)c1CC1=NCCN1 [CLX-162C-C01]"
  pIC50: 3.49

Value source: patent US20220033360A1
